duplex formation free energy ΔG50 values, listed per item
# Experiment description: duplex formation free energy ΔG50 (Van't Hoff fit of HRM Tm); higher = less stable duplex
# Conditions: temperature for dG: 50 °C; NaCl: 500 mM (unadjusted); backbone: PS-PO (listed strand fully phosphorothioate, complement phosphodiester)
Answer with the value and then the unit.

# Sequence text, Observed property, Value measured
measured = [
    ("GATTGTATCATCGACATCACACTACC", "duplex formation free energy ΔG50", "-16.1 kcal/mol"),
    ("CGATTTTGTCAAGCCT", "duplex formation free energy ΔG50", "-10.4 kcal/mol"),
    ("CCACTAGCGGCGCCGTT", "duplex formation free energy ΔG50", "-13.7 kcal/mol"),
    ("GCAGGAGCCGCGACCTG", "duplex formation free energy ΔG50", "-14 kcal/mol"),
    ("ACGGGTCGTTCCGTG", "duplex formation free energy ΔG50", "-11.4 kcal/mol"),
]

Task item: For the sequence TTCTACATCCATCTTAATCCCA , what duplex formation free energy ΔG50 is on record?
Reply: -12 kcal/mol
